Data origin, for the record: ChEMBL document CHEMBL3885881

- Species on record: Rattus norvegicus
- assay_procedure: DrugMatrix - Regimen: Daily Repeat
- Type: toxicity, organism-based, Sprague-Dawley
- Set-up: regimen Daily Repeat, gender Male, age 6-8 weeks
- settings: in vivo, po, 0 mg/kg, 120 h, tissue Plasma, route oral GAVAGE, dose level Control, time 5 day, vehicle 100 % WATER
readout: CHLORIDE (MEQ/L)

INSERT INTO assay_data (compound, readout_value) VALUES
  ('CC(C)(C)CC(C)(C)c1ccc(OCCOCC[N+](C)(C)Cc2ccccc2)cc1.[Cl-] [BENZETHONIUM CHLORIDE]', 98.33),
  ('Cc1ccc(NC(=O)c2ccc(CN3CCN(C)CC3)cc2)cc1Nc1nccc(-c2cccnc2)n1 [IMATINIB]', 100.33),
  ('O.O.O.O.O.O.[Cl-].[Cl-].[Sr+2] [STRONTIUM CHLORIDE HEXAHYDRATE]', 100.33),
  ('CS(=O)(=O)c1ccc([C@@H](O)[C@@H](CO)NC(=O)C(Cl)Cl)cc1 [THIAMPHENICOL]', 100.33),
  ('CN(C)CCOC(c1ccccc1)c1ccccc1 [DIPHENHYDRAMINE]', 98.33),
  ('C[C@]12C=CC(=O)C=C1CC[C@@H]1[C@@H]2[C@@H](O)C[C@@]2(C)[C@H]1CC[C@]2(O)C(=O)CO [PREDNISOLONE]', 99.5),
  ('NNc1nncc2ccccc12 [HYDRALAZINE]', 98.33),
  ('Oc1cccc(O)c1O [PYROGALLOL]', 101.67),
  ('CCN(CC)CCNC(=O)c1cc(S(C)(=O)=O)ccc1OC [TIAPRIDE]', 100.33);
